- subject-of-test: T1, Human C5 (human, UniProt P01031 19-1676)
- T1 construct: The natural protein has a beta and an alpha chain; also called complement factor 5; complement component 5
- measurement-notes: SPR, mAb captured by anti-hFc, 25C
Field: t½. Provide a value for each of the binders that follow.
Answer with a number only, understood to be in min.

// lookup t½ for H4H12163P (antibody, human IgG4, V domains shown) VH: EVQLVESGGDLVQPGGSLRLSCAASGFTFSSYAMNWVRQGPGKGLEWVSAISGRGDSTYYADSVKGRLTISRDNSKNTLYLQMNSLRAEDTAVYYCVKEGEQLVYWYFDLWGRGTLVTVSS VL: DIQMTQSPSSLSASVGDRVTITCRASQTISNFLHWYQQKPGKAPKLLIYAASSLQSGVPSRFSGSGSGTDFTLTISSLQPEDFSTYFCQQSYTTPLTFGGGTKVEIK
55

// lookup t½ for H4H12164P (antibody, human IgG4, V domains shown) VH: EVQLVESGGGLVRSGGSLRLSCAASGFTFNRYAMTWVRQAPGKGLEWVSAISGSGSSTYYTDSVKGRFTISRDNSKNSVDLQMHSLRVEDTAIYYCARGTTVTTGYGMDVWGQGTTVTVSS VL: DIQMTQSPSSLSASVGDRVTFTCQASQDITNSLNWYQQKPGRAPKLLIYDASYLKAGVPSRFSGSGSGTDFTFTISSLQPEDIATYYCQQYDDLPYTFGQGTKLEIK
131

// lookup t½ for H4H12166P2 (antibody, human IgG4, V domains shown, human IgG4 Fc with S108P hinge mutation) VH: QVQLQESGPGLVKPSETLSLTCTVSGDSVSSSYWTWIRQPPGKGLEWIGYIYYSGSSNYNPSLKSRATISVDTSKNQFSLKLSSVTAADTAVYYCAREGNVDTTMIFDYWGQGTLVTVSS VL: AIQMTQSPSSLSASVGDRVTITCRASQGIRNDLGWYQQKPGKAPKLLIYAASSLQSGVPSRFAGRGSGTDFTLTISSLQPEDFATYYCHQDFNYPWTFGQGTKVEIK
32
